All values here come from PubChem BioAssay (NCATS).

Assay: qHTS drug screen for cell cycle checkpoint inhibitors in PARPi-resistant BRCA-mutant ovarian cancer cell lines. (AID 1963452)
Conditions: PEO1/OlaR viability, CellTiter-Glo luminescence, 96 h; measured here: PEO4 Z-AUC; stronger effect = lower value
Where a SMILES comes first, the peptide text is derived from it. [ ]: non-standard residue; d: D form. The star is where a group is joined. Benzoyl(4-tBu) = CC(C)(C)c1ccc(C(=O)*)cc1; Lys(Et2) = CCN(CC)CCCC[C@H](N)C(=O)O

compound	Z-AUC
CONC(=O)Nc1ccc(-c2sc3c(c2CN(C)C)c(=O)n(-c2ccc(OC)nn2)c(=O)n3Cc2c(F)cccc2F)cc1	0.818
CC(=O)N1c2ccc(-c3ccc(C(=O)O)cc3)cc2[C@H](Nc2ccc(Cl)cc2)C[C@@H]1C	-0.741
C=CC(=O)N1CCC(CNc2ncnc(N)c2-c2ccc(Oc3ccccc3)cc2)CC1	1.23
CCN(CC)CCCC[C@H](NC(=O)[C@H](CC(C)C)NC(=O)[C@H](C)NC(=O)[C@H](Cc1ccccc1)NC(=O)c1ccc(C(C)(C)C)cc1)C(=O)N[C@@H](CO)C(=O)OC ({Benzoyl(4-tBu)}-FAL[Lys(Et2)]S-OMe)	-0.0734
CC1=NN(c2ccc(C(=O)O)cc2)C(=O)/C1=C/c1ccc(-c2cc(C)c(C)cc2[N+](=O)[O-])o1	-0.0936
C=CCN1C[C@H](C(=O)N(CCCN(C)C)C(=O)NCC)CC2c3cccc4[nH]cc(c34)C[C@H]21 (stereo partly specified)	-0.259
N#CCC1(n2cc(-c3ncnc4[nH]ccc34)cn2)CN(C2CCN(C(=O)c3ccnc(C(F)(F)F)c3F)CC2)C1	-0.617
CC(C)(C)C(=O)N1N=CC[C@H]1c1ccccc1	-0.663
CN(C)C/C=C/C(=O)Nc1cc2c(Nc3ccc(F)c(Cl)c3)ncnc2cc1O[C@H]1CCOC1	-1.62
CC(C)n1c(=O)cc(N[C@@H](C)c2ccccc2)[nH]c1=O	1.05
O=c1cc(N2CCOCC2)oc2c(-c3ccc4c(c3)OCCO4)csc12	-0.553
COc1ccc(-n2cnc3cc(C(=O)N4CCCCC4)ccc32)cc1	0.92
CC(/C=C1\SC(=S)N(CC(=O)O)C1=O)=C\c1ccccc1	1.77
Cc1cccc(/C=N/Nc2cc(N3CCOCC3)nc(OCCc3ccccn3)n2)c1	0.106
Fc1ccc(-c2csc3ncnc(NCc4ccc5c(c4)OCO5)c23)cc1	0.314
Cc1nc(C)c(CN2CCN(C(c3ccc(F)cc3)c3ccc(F)cc3)CC2)nc1C	1.05
COc1cc2c(Oc3ccc4[nH]c(C)cc4c3F)ccnc2cc1OCC1(N)CC1	0.196
CC1=C2[N-][C@H]([C@H](CC(N)=O)[C@@]2(C)CCC(=O)NC[C@@H](C)OP(=O)([O-])O[C@H]2[C@@H](O)[C@@H](n3cnc4cc(C)c(C)cc43)O[C@@H]2CO)[C@]2(C)N=C(C(C)=C3N=C(C=C4N=C1[C@@H](CCC(N)=O)C4(C)C)[C@@H](CCC(N)=O)[C@]3(C)CC(N)=O)[C@@H](CCC(N)=O)[C@]2(C)CC(N)=O.O.[Co+2]	0.294
CC1(N)CCN(c2cnc(-c3cccc(Cl)c3Cl)c(N)n2)CC1	-0.55
C=C1C(=O)O[C@@H]2[C@H]3C(C)=CC[C@@]34O[C@@]4(C)CC[C@@H]12	0.342
CCN(CC)CCNc1ccc(C)c2sc3ccccc3c(=O)c12	-0.562
